INH reference
# Test system: Bacillus subtilis
# test.protocol: Inhibition of FtsZ in Bacillus subtilis ATCC 9372 assessed as decrease in cell division by measuring lowest compound concentration at which bacterial filamentation is observed after 5 hrs by phase-contrast light microscopy
Give a bare numeral; the unit µg/mL is implied.

The cases that follow already have their INH on record.
compound.structure | numeric.result
NC(=O)c1c(F)ccc(OCCCCCBr)c1F | 2
NC(=O)c1c(F)ccc(OCCCCCCCl)c1F | 0.25
CC(C)CCOc1ccc(F)c(C(N)=O)c1F | 4
NC(=O)c1c(F)ccc(OC2CCCC2)c1F | 256

The recorded INH for NC(=O)c1c(F)ccc(OCCCCCCn2cnc3ccccc32)c1F is 128

* * *

# target.desc: Cell division protein FtsZ (Staphylococcus aureus) (UniProt P0A031)
# Sequence (whole entry): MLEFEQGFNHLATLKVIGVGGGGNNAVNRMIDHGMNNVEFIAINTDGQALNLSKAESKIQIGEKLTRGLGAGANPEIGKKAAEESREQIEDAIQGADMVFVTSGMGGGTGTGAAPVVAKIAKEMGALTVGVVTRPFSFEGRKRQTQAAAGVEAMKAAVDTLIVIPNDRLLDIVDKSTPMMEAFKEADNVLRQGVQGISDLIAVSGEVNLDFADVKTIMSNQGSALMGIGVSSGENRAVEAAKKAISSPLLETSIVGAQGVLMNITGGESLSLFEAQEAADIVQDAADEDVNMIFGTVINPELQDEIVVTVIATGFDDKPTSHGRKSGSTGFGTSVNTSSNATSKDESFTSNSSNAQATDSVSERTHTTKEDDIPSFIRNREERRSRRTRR
# test.protocol: Inhibition of FtsZ in Staphylococcus aureus ATCC 25923 assessed as decrease in cell division by measuring lowest compound concentration at which bacterial ballooning is observed after 5 hrs by phase-contrast light microscopy
Please mark Yes if the recorded INH is equal to or greater than 30 µg/mL, and No if it falls below.

Here are 7 compounds together with their reported answers.
compound | target.desc | label
NC(=O)c1c(F)ccc(OCCCCCl)c1F | Cell division protein FtsZ (Staphylococcus aureus) (UniProt P0A031) | No
NC(=O)c1c(F)ccc(OCCCCCCBr)c1F | Cell division protein FtsZ (Staphylococcus aureus) (UniProt P0A031) | No
CCCCC(CC)COc1ccc(F)c(C(N)=O)c1F (stereo not drawn) | Cell division protein FtsZ (Staphylococcus aureus) (UniProt P0A031) | No
COc1cc(/C=C/C(=O)CC(=O)/C=C/c2ccc(O)c(OC)c2)ccc1O | Cell division protein FtsZ (Staphylococcus aureus) (UniProt P0A031) | Yes
NC(=O)c1c(F)ccc(OCCCCl)c1F | Cell division protein FtsZ (Staphylococcus aureus) (UniProt P0A031) | Yes
NC(=O)c1c(F)ccc(OCCBr)c1F | Cell division protein FtsZ (Staphylococcus aureus) (UniProt P0A031) | No
CC(C)COc1ccc(F)c(C(N)=O)c1F | Cell division protein FtsZ (Staphylococcus aureus) (UniProt P0A031) | No

Q: Quick check: does NC(=O)c1c(F)ccc(OCCn2cnc3cc([N+](=O)[O-])ccc32)c1F have INH greater than or equal to 30 µg/mL?
Result: Yes
